# Tested on: SNB-78 CNS
# PROTOCOL DESCRIPTION: NCI tumour cell line growth inhibition, 48 h
PROPERTY LABEL: TGI

Item O=c1c2ccccc2n2n1CC(O)C2 (stereo not drawn) has what recorded TGI?
> 100 µM

Item "CC(C)OC(=O)C1=C(O)c2ccccc2S(=O)(=O)N1" has what recorded TGI?
> 100 µM

----------
# Tested on: HOP-62 NSCLC
# PROTOCOL DESCRIPTION: NCI tumour cell line growth inhibition, 48 h
PROPERTY LABEL: TGI (µM)
Enter your answer as a number in µM; do not include the unit.

Observe how each entry below is paired with its result.
| COMPOUND SMILES | MEASURED TARGET | UNIT | TGI |
| --- | --- | --- | --- |
| O=C(Nc1cccc(Oc2nnc(Cl)c3ccccc23)c1)Nc1ccc(Cl)c(C(F)(F)F)c1 | HOP-62 NSCLC | µM | 5.75 |
| Cc1ccc2nc(-c3ccc(-n4c(C)nc(=O)c(-c5ccc(F)cc5)c4C)cc3)sc2c1 | HOP-62 NSCLC | µM | 45.5 |

Item "CC[C@H](Nc1nc(N)nc(C)c1C#N)c1nc2cccc(NCc3ccc(C(=O)NO)cc3)c2c(=O)n1-c1ccccc1" has what recorded TGI?
6.22

----------
Overview of recorded TGI for various molecules
# System: HCT-116 colon
# PROTOCOL DESCRIPTION: NCI tumour cell line growth inhibition, 48 h
Enter your answer as a number in µM; do not include the unit.

| MOLECULE | MEASURED TARGET | TGI (µM) |
| --- | --- | --- |
| O=C(O)C1=C(C(=O)O)N(c2ccncc2)C(c2ccco2)=CC1c1ccccc1[N+](=O)[O-] (centres undefined) | HCT-116 colon | 3.4 |
| O=C1c2ccccc2C(=O)c2c(NCCNCCO)ccc(O)c21 | HCT-116 colon | 12.9 |
| c1ccc(-c2cc(C3CO3)c3ccccc3n2)cc1 (centres undefined) | HCT-116 colon | 30.2 |
| Nc1c(-c2nc3ccccc3o2)sc(=S)n1-c1ccc(Cl)cc1 | HCT-116 colon | 29.3 |
| Cc1ccc2nc(-c3ccc(-n4c(C)nc(=O)c(-c5ccc(F)cc5)c4C)cc3)sc2c1 | HCT-116 colon | 29.4 |

Item "CC(=O)c1cc2c(cc1Nc1c3ccccc3nc3occ(Cl)c13)OCO2" has what recorded TGI?
1.07

----------
# Test system: MDA-MB-435
# PROTOCOL DESCRIPTION: NCI tumour cell line growth inhibition, 48 h
PROPERTY LABEL: TGI

Observe how each entry below is paired with its result.
| COMPOUND SMILES | PROPERTY LABEL | ASSAY VALUE |
| --- | --- | --- |
| CO/N=C(/C(=O)N(C(=O)/C(=N/OC)c1csc(NC(c2ccccc2)(c2ccccc2)c2ccccc2)n1)n1cnn(CC(=O)OC(C)(C)C)c1=O)c1csc(NC(c2ccccc2)(c2ccccc2)c2ccccc2)n1 | TGI | > 10 µM |
| COc1ccc2c(c1)C(=O)c1c-2c(Nc2ccc(C(C)=O)cc2)nc2ccccc12 | TGI | > 100 µM |
| COc1ccc(N=C2C(=Nc3ccc(OC)cc3)N(S(=O)(=O)c3ccccc3)C(=S)N2c2ccccc2)cc1 | TGI | > 100 µM |
| Cc1ccc(Nc2n[nH]c(=S)s2)cc1 | TGI | > 100 µM |
| O=C1Nc2ccccc2S/C1=C\c1ccccc1C(F)(F)F | TGI | > 100 µM |

Here is another compound to look at.
Item "CCCCCC(=O)Nc1nc[nH]c1C(N)=O" has what recorded TGI?
> 100 µM

----------
# Tested on: T-47D breast
# PROTOCOL DESCRIPTION: NCI tumour cell line growth inhibition, 48 h; in the data active = GI50 below about 0.43 µM; inactive = the rest
Can you answer with just one of these options? true for active, false for inactive

| COMPOUND | MEASURED TARGET | CATEGORY |
| --- | --- | --- |
| O=c1c2ccccc2n2n1CC(O)C2 (stereo unspecified) | T-47D breast | false |
| CC[C@H](Nc1nc(N)nc(C)c1C#N)c1nc2cccc(NCc3ccc(C(=O)NO)cc3)c2c(=O)n1-c1ccccc1 | T-47D breast | false |
| O=c1cc(N2CCNCC2)oc2c(-c3ccccc3)cccc12 | T-47D breast | false |

I'd appreciate the recorded outcome for CCN1C(=O)NC(=O)C(C)(N2C(=O)c3c(F)c(F)c(F)c(F)c3C2=O)C1=O (stereo unspecified) from this test.
false

I'd appreciate the recorded outcome for "COc1ccc2c(c1)C(=O)C(=O)c1cc(O)c(OC)c(OC)c1-2" from this test.
false

----------
# System: OVCAR-5 ovarian
# PROTOCOL DESCRIPTION: NCI tumour cell line growth inhibition, 48 h
Overview of recorded GI50 for various molecules

Observe how each entry below is paired with its result.
| MOLECULE | ASSAY VALUE |
| --- | --- |
| Cc1cccc(C(=O)/C=C/SC(=NC#N)SCc2ccccc2)c1 | 19.4 µM |
| CC(=O)c1cc2c(cc1Nc1c3ccccc3nc3occ(Cl)c13)OCO2 | 0.616 µM |
| O=c1cc(N2CCNCC2)oc2c(-c3ccccc3)cccc12 | > 100 µM |
| CO/N=C(\C)c1cccc(Nc2cc(-c3ccccc3)nc3c(O)cccc23)c1 | 20.3 µM |
| C/C(=N\N=C(\[Se])N1CCN(c2ccccn2)CC1)c1ccccn1 | 0.00643 µM |

Item CCN1C(=O)NC(=O)C(C)(N2C(=O)c3c(F)c(F)c(F)c(F)c3C2=O)C1=O (stereo unspecified) has what recorded GI50?
3.82 µM

Item Cc1noc(C)c1-c1cc(O)cc(C(O)c2ccccc2)c1 (stereo unspecified) has what recorded GI50?
31.8 µM

Item "Cn1cc(C2=C(c3cccnc3)C(=O)NC2=O)c2ccccc21" has what recorded GI50?
> 25 µM

Item "COc1cnc2c(c1)C(=O)c1c-2n(CCCN2CCC(O)CC2)c(=O)c2cc(F)ccc12" has what recorded GI50?
0.355 µM

Item "CCOC(=O)c1c2c(n(Cc3ccccc3)c1C)-c1ccccc1C(=O)C2=O" has what recorded GI50?
15.5 µM

Item "Cc1cc(C2=NNC(=O)Cc3cc4c(cc32)OCCO4)cc(C)c1N" has what recorded GI50?
8.02 µM

----------
# Tested on: MDA-MB-231 breast
# PROTOCOL DESCRIPTION: NCI tumour cell line growth inhibition, 48 h
Where a SMILES comes first, the peptide text is derived from it. The star is where a group is joined. Pentanoyl = CCCCC(=O)*; Boc = CC(C)(C)OC(=O)*
Overview of recorded TGI for various compounds

| COMPOUND | TGI |
| --- | --- |
| CCOC(=O)C(NCc1ccc2c(c1)OCO2)(NC(=O)c1ccccc1)C(F)(F)F (centres undefined) | > 100 µM |
| Cn1nnnc1N/N=C/c1ccccc1 | > 10 µM |
| CC(=O)O[C@H]1CC[C@@]2(C)C(=CC[C@@H]3[C@@H]2CC[C@]2(C)Nc4c(cnn4S(C)(=O)=O)C[C@@H]32)C1 | > 100 µM |
| O=C1C2=Nc3ccccc3C(O)N2c2ccccc21 (centres undefined) | > 100 µM |
| CCC1(CCSC(=N)N)C(=O)NC(=O)NC1=O | > 100 µM |
| COc1cccc2c1-c1c(c3ccc([N+](=O)[O-])cc3c(=O)n1CCCCl)C2=O | > 50 µM |
| CC[C@H](Nc1nc(N)nc(C)c1C#N)c1nc2cccc(NCc3ccc(C(=O)NO)cc3)c2c(=O)n1-c1ccccc1 | 5.3 µM |
| COc1ccc(C2=NN(C(=O)c3cc(OC)c(OC)c(OC)c3)C(c3ccc(Cl)cc3)C2)cc1OC (centres undefined) | > 68.3 µM |
| Cn1cc(-c2cnc(-c3cn(C)c4ccccc34)cn2)c2ccccc21 | > 96.6 µM |
| C=C1CCCCCCCCCCC12SCCC2CCCCSC (centres undefined) | 39 µM |

Could you share what TGI was measured for "C[C@@H]1CC[C@@H]2[C@@H]1[C@H](OC(=O)/C=C/c1ccccc1)[C@]1(C3CCCCC3)C[C@@H](NC(=O)CO)[C@@]2(C)O1" , tested on MDA-MB-231 breast?
35.4 µM

Could you share what TGI was measured for "O=C1Nc2ccccc2S/C1=C\c1ccccc1C(F)(F)F" , tested on MDA-MB-231 breast?
> 100 µM

Could you share what TGI was measured for C=C(C)C1CC2(C)C(C)CC(OC(=O)/C(C)=C\C)CC2C(OC(=O)/C(C)=C\C)C1O (centres undefined) , tested on MDA-MB-231 breast?
> 100 µM

Could you share what TGI was measured for "Cc1cccc(/C=C2\CCCc3ccccc3C2=O)c1" , tested on MDA-MB-231 breast?
48 µM

Could you share what TGI was measured for CCCCC(=O)Oc1ccc(CC(NC(=O)OC(C)(C)C)C(=O)NC(C)C(=O)NC(Cc2ccccc2)C(=O)NCC(N)=O)cc1 (centres undefined) (Boc-Y(Pentanoyl)AFG-NH2; configuration not given here) , tested on MDA-MB-231 breast?
41.6 µM
